settings: in acetonitrile, 278.15 K
OBSERVABLE: solubility (mole fraction)

1) Clc1cccnc1Cl | 0.061

---

details: in acetonitrile, 313.15 K
OBSERVABLE: solubility (mole fraction)

1) Clc1cccnc1Cl | 0.389

---

details: in n-hexane, 303.15 K
OBSERVABLE: solubility (mole fraction)

1. Clc1cccnc1Cl | 0.0684

---

conditions: in n-propanol, 278.15 K
OBSERVABLE: solubility (mole fraction)

1) Clc1cccnc1Cl | 0.0378

---

details: in n-butanol, 313.15 K
OBSERVABLE: solubility (mole fraction)

1) Clc1cccnc1Cl | 0.249

---

details: in n-butyl acetate, 313.15 K
OBSERVABLE: solubility (mole fraction)

1. Clc1cccnc1Cl | 0.487

---

conditions: in n-butyl acetate, 278.15 K
OBSERVABLE: solubility (mole fraction)

1) Clc1cccnc1Cl | 0.185

---

conditions: in n-hexane, 293.15 K
OBSERVABLE: solubility (mole fraction)

1. Clc1cccnc1Cl | 0.0387

---

conditions: in n-propanol, 298.15 K
OBSERVABLE: solubility (mole fraction)

1. Clc1cccnc1Cl | 0.1

---

conditions: in 1,4-dioxane, 293.15 K
OBSERVABLE: solubility (mole fraction)

1. Clc1cccnc1Cl | 0.285

---

conditions: in acetonitrile, 288.15 K
OBSERVABLE: solubility (mole fraction)

1) Clc1cccnc1Cl | 0.108

---

settings: in ethyl acetate, 298.15 K
OBSERVABLE: solubility (mole fraction)

1) Clc1cccnc1Cl | 0.302

---

details: in isobutanol, 288.15 K
OBSERVABLE: solubility (mole fraction)

1) Clc1cccnc1Cl | 0.0654

---

details: in dichloromethane, 313.15 K
OBSERVABLE: solubility (mole fraction)

1. Clc1cccnc1Cl | 0.489

---

conditions: in isopropanol, 298.15 K
OBSERVABLE: solubility (mole fraction)

1. Clc1cccnc1Cl | 0.0895

---

conditions: in n-hexane, 283.15 K
OBSERVABLE: solubility (mole fraction)

1) Clc1cccnc1Cl | 0.0216

---

conditions: in isopropanol, 293.15 K
OBSERVABLE: solubility (mole fraction)

1. Clc1cccnc1Cl | 0.0687
